Quick reference: viability, T/C of the listed items.
tested on: 292921-168-R-J2-PDC complex spheroid growth; experiment: Anticancer human tumor 292921-168-R-J2-PDC patient-derived pancreatic carcinoma cell line growth inhibition [AhR]; conditions: second compound 10 µM; first compound 0.0316 µM; stronger effect = lower value
MEASURED METRIC: viability, T/C

COMPOUND	REPORTED MEASUREMENT
COc1cc(C2c3cc4c(cc3C(OC3OC5COC(C)OC5C(O)C3O)C3COC(=O)C23)OCO4)cc(OC)c1O (stereo unspecified) + CC(CO)NC(=O)c1cc(-c2ccc(Cl)cc2)nn(-c2cnn(C)c2)c1=O	60.9%
CC1COCCN1c1cc(-c2ccnn2C)c2ccnc(-c3ccn[nH]3)c2n1 (stereo unspecified) + CC(CO)NC(=O)c1cc(-c2ccc(Cl)cc2)nn(-c2cnn(C)c2)c1=O	26.8%
CC1COCCN1c1cc(-c2ccnn2C)c2ccnc(-c3ccn[nH]3)c2n1 (stereo unspecified) + Cc1ccccc1N=Nc1ccc(NC(=O)c2ccnn2C)c(C)c1	29.8%
CC1(C)CCC(CN2CCN(c3ccc(C(=O)NS(=O)(=O)c4ccc(NCC5CCOCC5)c([N+](=O)[O-])c4)c(Oc4cnc5[nH]ccc5c4)c3)CC2)=C(c2ccc(Cl)cc2)C1 + CC(CO)NC(=O)c1cc(-c2ccc(Cl)cc2)nn(-c2cnn(C)c2)c1=O	67.8%
NS(=O)(=O)OCC1CC(n2ccc3c(NC4CCc5ccccc54)ncnc32)CC1O (stereo unspecified) + Cc1ccccc1N=Nc1ccc(NC(=O)c2ccnn2C)c(C)c1	88.9%
CC(C)c1c(-c2ccccc2)nc2c(C#N)c[nH]n2c1=O + Cc1ccccc1N=Nc1ccc(NC(=O)c2ccnn2C)c(C)c1	58.1%

---

test system: 292921-168-R-J2-PDC complex spheroid growth; test: Anticancer human tumor 292921-168-R-J2-PDC cell line growth inhibition [AhR]; settings: curve of first compound; second compound 3.16 µM;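 note: spheroids exposed to compounds for seven days after three days of growth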
MEASURED METRIC: IC50 (nM)

COMPOUND	ASSAY SYSTEM	QUAL	REPORTED MEASUREMENT
CC1(C)CCC(CN2CCN(c3ccc(C(=O)NS(=O)(=O)c4ccc(NCC5CCOCC5)c([N+](=O)[O-])c4)c(Oc4cnc5[nH]ccc5c4)c3)CC2)=C(c2ccc(Cl)cc2)C1 + Cc1ccccc1N=Nc1ccc(NC(=O)c2ccnn2C)c(C)c1	292921-168-R-J2-PDC complex spheroid growth	=	5510
O=C(C=Cn1cnc(-c2cc(C(F)(F)F)cc(C(F)(F)F)c2)n1)NNc1cnccn1 + Cc1ccccc1N=Nc1ccc(NC(=O)c2ccnn2C)c(C)c1	292921-168-R-J2-PDC complex spheroid growth	=	76.4
Cn1ncnc1C1c2n[nH]c(=O)c3cc(F)cc(c23)NC1c1ccc(F)cc1 (stereo not drawn) + Cc1cncc(-c2nc(NCCc3c[nH]c4ccccc34)c3ncn(C(C)C)c3n2)c1	292921-168-R-J2-PDC complex spheroid growth	>	100

---

tested on: 292921-168-R-J2-PDC complex spheroid growth; test: Anticancer human tumor 292921-168-R-J2-PDC cell line growth inhibition [AhR]; conditions: second compound 0.316 µM; first compound 0.00949 µM; stronger effect = lower value;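 note: spheroids exposed to compounds for seven days after three days of growth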

COMPOUND	ASSAY SYSTEM	viability, T/C (%)
Nc1ncn(C2CC(O)C(CO)S2)c(=O)n1 (stereo unspecified) + Cc1ccccc1N=Nc1ccc(NC(=O)c2ccnn2C)c(C)c1	292921-168-R-J2-PDC complex spheroid growth	93.3
Nc1ncn(C2CC(O)C(CO)S2)c(=O)n1 (stereo unspecified) + CC(CO)NC(=O)c1cc(-c2ccc(Cl)cc2)nn(-c2cnn(C)c2)c1=O	292921-168-R-J2-PDC complex spheroid growth	96.3
CCN(c1cc(-c2ccc(CN3CCOCC3)cc2)cc(C(=O)NCc2c(C)cc(C)[nH]c2=O)c1C)C1CCOCC1 + CC(CO)NC(=O)c1cc(-c2ccc(Cl)cc2)nn(-c2cnn(C)c2)c1=O	292921-168-R-J2-PDC complex spheroid growth	107
CCc1c2c(nc3ccc(O)cc13)-c1cc3c(c(=O)n1C2)COC(=O)[C@]3(O)CC + Cc1cncc(-c2nc(NCCc3c[nH]c4ccccc34)c3ncn(C(C)C)c3n2)c1	292921-168-R-J2-PDC complex spheroid growth	23.2
CCc1c2c(nc3ccc(O)cc13)-c1cc3c(c(=O)n1C2)COC(=O)[C@]3(O)CC + Cc1ccccc1N=Nc1ccc(NC(=O)c2ccnn2C)c(C)c1	292921-168-R-J2-PDC complex spheroid growth	17.3
CCN(c1cc(-c2ccc(CN3CCOCC3)cc2)cc(C(=O)NCc2c(C)cc(C)[nH]c2=O)c1C)C1CCOCC1 + Cc1cncc(-c2nc(NCCc3c[nH]c4ccccc34)c3ncn(C(C)C)c3n2)c1	292921-168-R-J2-PDC complex spheroid growth	94.7

---

system: 292921-168-R-J2-PDC complex spheroid growth; assay: Anticancer human tumor 292921-168-R-J2-PDC cell line growth inhibition [AhR]; conditions: second compound 3.16 µM; first compound 3.16 µM; stronger effect = lower value;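 note: spheroids exposed to compounds for seven days after three days of growth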
Measured viability, T/C values are reported for all entries that follow.

COMPOUND	viability, T/C (%)
NS(=O)(=O)OCC1CC(n2ccc3c(NC4CCc5ccccc54)ncnc32)CC1O (stereo not given) + Cc1cncc(-c2nc(NCCc3c[nH]c4ccccc34)c3ncn(C(C)C)c3n2)c1	7.53
COc1ccc([C@@H](O)c2cc(-c3ncnc4cc(N5CCOCC5)ccc34)c(F)cc2Cl)nn1 + CC(CO)NC(=O)c1cc(-c2ccc(Cl)cc2)nn(-c2cnn(C)c2)c1=O	36
CC(C)c1c(-c2ccccc2)nc2c(C#N)c[nH]n2c1=O + Cc1ccccc1N=Nc1ccc(NC(=O)c2ccnn2C)c(C)c1	74
CC1(C)CCC(CN2CCN(c3ccc(C(=O)NS(=O)(=O)c4ccc(NCC5CCOCC5)c([N+](=O)[O-])c4)c(Oc4cnc5[nH]ccc5c4)c3)CC2)=C(c2ccc(Cl)cc2)C1 + Cc1cncc(-c2nc(NCCc3c[nH]c4ccccc34)c3ncn(C(C)C)c3n2)c1	79.7
COc1cc(Nc2ncc3c(n2)-c2ccc(Cl)cc2C(c2c(F)cccc2OC)=NC3)ccc1C(=O)O + Cc1cncc(-c2nc(NCCc3c[nH]c4ccccc34)c3ncn(C(C)C)c3n2)c1	35.5

---

Listing of entries alongside the reported IC50.
test system: 292921-168-R-J2-PDC complex spheroid growth; experiment: Anticancer human tumor 292921-168-R-J2-PDC cell line growth inhibition [AhR]; conditions: curve of first compound; second compound 3.16 µM;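 note: spheroids exposed to compounds for seven days after three days of growth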
MEASURED METRIC: IC50

COMPOUND	ASSAY SYSTEM	REPORTED MEASUREMENT
CC[C@@]1(O)C(=O)OCc2c1cc1n(c2=O)Cc2cc3c(CN(C)C)c(O)ccc3nc2-1 + Cc1cncc(-c2nc(NCCc3c[nH]c4ccccc34)c3ncn(C(C)C)c3n2)c1	292921-168-R-J2-PDC complex spheroid growth	21 nM
Nc1ncn(C2CC(O)C(CO)O2)c(=O)n1 (stereo unspecified) + Cc1ccccc1N=Nc1ccc(NC(=O)c2ccnn2C)c(C)c1	292921-168-R-J2-PDC complex spheroid growth	> 1000 nM
COc1cccc2c1C(=O)c1c(O)c3c(c(O)c1C2=O)CC(O)(C(=O)CO)CC3OC1CC(N)C(O)C(C)O1 (stereo unspecified) + Cc1ccccc1N=Nc1ccc(NC(=O)c2ccnn2C)c(C)c1	292921-168-R-J2-PDC complex spheroid growth	< 31.6 nM
CCc1c2c(nc3ccc(O)cc13)-c1cc3c(c(=O)n1C2)COC(=O)[C@]3(O)CC + Cc1cncc(-c2nc(NCCc3c[nH]c4ccccc34)c3ncn(C(C)C)c3n2)c1	292921-168-R-J2-PDC complex spheroid growth	< 0.949 nM
Nc1ncn(C2CC(O)C(CO)O2)c(=O)n1 (stereo unspecified) + Cc1cncc(-c2nc(NCCc3c[nH]c4ccccc34)c3ncn(C(C)C)c3n2)c1	292921-168-R-J2-PDC complex spheroid growth	> 1000 nM
CC(C)CC(NC(=O)C(Cc1ccccc1)NC(=O)c1cnccn1)B(O)O (stereo unspecified) + Cc1cncc(-c2nc(NCCc3c[nH]c4ccccc34)c3ncn(C(C)C)c3n2)c1	292921-168-R-J2-PDC complex spheroid growth	6.72 nM

---

Recorded pIC50 for the following compounds
system: 292921-168-R-J2-PDC complex spheroid growth; experiment: Anticancer human tumor 292921-168-R-J2-PDC cell line growth inhibition [AhR]; conditions: curve of first compound; second compound 1 µM;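 note: spheroids exposed to compounds for seven days after three days of growth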
pIC50: −log10 of the molar value.

COMPOUND	QUAL	pIC50
CC(C)c1c(-c2ccccc2)nc2c(C#N)c[nH]n2c1=O + Cc1cncc(-c2nc(NCCc3c[nH]c4ccccc34)c3ncn(C(C)C)c3n2)c1	<	5.00
CC(C)c1c(-c2ccccc2)nc2c(C#N)c[nH]n2c1=O + CC(CO)NC(=O)c1cc(-c2ccc(Cl)cc2)nn(-c2cnn(C)c2)c1=O	<	5.00
Nc1ncn(C2CC(O)C(CO)O2)c(=O)n1 (configuration not stated) + Cc1ccccc1N=Nc1ccc(NC(=O)c2ccnn2C)c(C)c1	<	6.00
CC1COCCN1c1cc(-c2ccnn2C)c2ccnc(-c3ccn[nH]3)c2n1 (configuration not stated) + CC(CO)NC(=O)c1cc(-c2ccc(Cl)cc2)nn(-c2cnn(C)c2)c1=O	=	7.48
O=C(C=Cn1cnc(-c2cc(C(F)(F)F)cc(C(F)(F)F)c2)n1)NNc1cnccn1 + Cc1cncc(-c2nc(NCCc3c[nH]c4ccccc34)c3ncn(C(C)C)c3n2)c1	=	6.71
COc1cc(C2c3cc4c(cc3C(OC3OC5COC(C)OC5C(O)C3O)C3COC(=O)C23)OCO4)cc(OC)c1O (configuration not stated) + CC(CO)NC(=O)c1cc(-c2ccc(Cl)cc2)nn(-c2cnn(C)c2)c1=O	=	6.27
Cn1ncnc1C1c2n[nH]c(=O)c3cc(F)cc(c23)NC1c1ccc(F)cc1 (configuration not stated) + Cc1cncc(-c2nc(NCCc3c[nH]c4ccccc34)c3ncn(C(C)C)c3n2)c1	<	7.00
CC(C)CC(NC(=O)C(Cc1ccccc1)NC(=O)c1cnccn1)B(O)O (configuration not stated) + Cc1cncc(-c2nc(NCCc3c[nH]c4ccccc34)c3ncn(C(C)C)c3n2)c1	=	8.04
CCN(c1cc(-c2ccc(CN3CCOCC3)cc2)cc(C(=O)NCc2c(C)cc(C)[nH]c2=O)c1C)C1CCOCC1 + Cc1cncc(-c2nc(NCCc3c[nH]c4ccccc34)c3ncn(C(C)C)c3n2)c1	<	5.52
O=C(C=Cn1cnc(-c2cc(C(F)(F)F)cc(C(F)(F)F)c2)n1)NNc1cnccn1 + CC(CO)NC(=O)c1cc(-c2ccc(Cl)cc2)nn(-c2cnn(C)c2)c1=O	=	7.01
COc1ccc([C@@H](O)c2cc(-c3ncnc4cc(N5CCOCC5)ccc34)c(F)cc2Cl)nn1 + Cc1ccccc1N=Nc1ccc(NC(=O)c2ccnn2C)c(C)c1	=	5.78
CC(C)c1c(-c2ccccc2)nc2c(C#N)c[nH]n2c1=O + Cc1ccccc1N=Nc1ccc(NC(=O)c2ccnn2C)c(C)c1	<	5.00

Entry source: PubChem BioAssay AID1918994
